The reported numbers originate from patent US20080139554A1.

Reported pKi values, human V1a receptor (Homo sapiens, UniProt P37288).
pKi here is simply -log10 of the concentration when that concentration is written in mol/L.

>  <compound>
O=C(c1cc2cc(F)ccc2[nH]1)N1CCC2(CC1)OCc1ccccc12 [Example 6]

>  <pKi>
7.75

$$$$
>  <compound>
CN1CCN(Cc2cc(Cl)cc3cc(C(=O)N4CCC5(CC4)OCc4ccccc45)[nH]c23)CC1 [Example 12]

>  <pKi>
7.67

$$$$
>  <compound>
Cc1c(C(=O)N2CCC3(CC2)COc2ccccc23)[nH]c2c(C)cccc12 [Example 26]

>  <pKi>
8.14

$$$$
>  <compound>
O=C(c1cc2cc(Cl)cc(CN3CCOCC3)c2[nH]1)N1CCC2(CC1)OCc1ccccc12 [Example 11]

>  <pKi>
8.42

$$$$

Entry COc1c(C(=O)N2CCC3(CC2)OCc2ccccc23)[nH]c2cccc(Br)c12 [Example 8] , system human V1a receptor (Homo sapiens, UniProt P37288): what pKi was measured? 7.52

Entry CN(C)C(=O)Cn1c(C(=O)N2CCC3(CC2)OC(=O)c2ccccc23)cc2cc(Cl)ccc21 [Example 4] , system human V1a receptor (Homo sapiens, UniProt P37288): what pKi was measured? 7.76

Entry CN1CCN(C(=O)Cc2cc(Cl)cc3cc(C(=O)N4CCC5(CC4)OCc4ccccc45)[nH]c23)CC1 [Example 14] , system human V1a receptor (Homo sapiens, UniProt P37288): what pKi was measured? 8.56
